A collection of substances and their measured percent inhibition of human Factor 11 mRNA relative to untreated control cells
system: human Factor 11 mRNA; assay: Dose-dependent inhibition of human Factor 11 in HepG2 cells, lipofectin 2.34-75 nM (Example 5); format: cell-based; conditions: 37.5 nM, ~16 hours
Please respond with the number in % and leave the unit unwritten.

Study these solved cases before continuing.
[[record]]
substance = "416826 (antisense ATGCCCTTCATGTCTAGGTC; 5-10-5 gapmer, further chemistry not given here) [compound 416826]"
units = "%"
observedresult = 76

[[record]]
substance = "417003 (antisense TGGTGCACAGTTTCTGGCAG; 2-13-5 gapmer chemistry, further chemistry not given here) [compound 417003]"
units = "%"
observedresult = 73

[[record]]
substance = "416925 (antisense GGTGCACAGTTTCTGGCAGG; 3-14-3 gapmer chemistry, further chemistry not given here) [compound 416925]"
units = "%"
observedresult = 67

[[record]]
substance = "416825 (antisense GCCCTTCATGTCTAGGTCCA; 5-10-5 gapmer, further chemistry not given here) [compound 416825]"
units = "%"
observedresult = 79

[[record]]
substance = "416999 (antisense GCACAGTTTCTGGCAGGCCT; 2-13-5 gapmer chemistry, further chemistry not given here) [compound 416999]"
units = "%"
observedresult = 72


Please look at the following substance next.
Give its percent inhibition of human Factor 11 mRNA relative to untreated control cells value. Item: 416892 (antisense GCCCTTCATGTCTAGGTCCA; 3-14-3 chimeric gapmer, further chemistry not given here) [compound 416892]
84
